# assayDetails: Promoting excretion of 238Pu(IV) in mice by injected ligands
# Type: in vivo
# testParameters: ligand 30 µmol kg^-1 ip at 1 h after iv ^238Pu(IV) citrate; kill at 24 h; pooled samples
measuredMetric: percent of injected ^238Pu at 24 h, excreta: feces and GI contents

[
  {
    "compound": "Cn1ccc(C(=O)NCCN(CCNC(=O)c2ccn(C)c(=O)c2O)CCN(CC(=O)O)CC(=O)O)c(O)c1=O [TREN-bis(Me-3,2-HOPO)-bis acetic acid]",
    "recordedResult": "34.6% of injected ^238Pu"
  },
  {
    "compound": "Cn1ccc(C(=O)NCCOCCNC(=O)c2ccn(C)c(=O)c2O)c(O)c1=O [5-LI-O-Me-3,2-HOPO]",
    "recordedResult": "61.7% of injected ^238Pu"
  },
  {
    "compound": "Cn1ccc(C(=O)NCCN(CCCCN(CCNC(=O)c2ccn(C)c(=O)c2O)CCNC(=O)c2ccn(C)c(=O)c2O)CCNC(=O)c2ccn(C)c(=O)c2O)c(O)c1=O [H(4,2)-Me-3,2-HOPO]",
    "recordedResult": "26.8% of injected ^238Pu"
  },
  {
    "compound": "Cn1ccc(C(=O)NCCCCCNC(=O)c2ccn(C)c(=O)c2O)c(O)c1=O [5-LI-Me-3,2-HOPO]",
    "recordedResult": "67.6% of injected ^238Pu"
  },
  {
    "compound": "Cc1c(CNC(=O)c2ccn(C)c(=O)c2O)c(C)c(CNC(=O)c2ccn(C)c(=O)c2O)c(C)c1CNC(=O)c1ccn(C)c(=O)c1O [ME-Me-3,2-HOPO]",
    "recordedResult": "70.1% of injected ^238Pu"
  },
  {
    "compound": "Cn1ccc(C(=O)NCCN(CCNC(=O)c2ccn(C)c(=O)c2O)CCNC(=O)c2ccn(C)c(=O)c2O)c(O)c1=O [TREN-Me-3,2-HOPO]",
    "recordedResult": "43.3% of injected ^238Pu"
  },
  {
    "compound": "Cn1ccc(C(=O)NCCCN(CCCNC(=O)c2ccn(C)c(=O)c2O)CCCNC(=O)c2ccn(C)c(=O)c2O)c(O)c1=O [TRPN-Me-3,2-HOPO]",
    "recordedResult": "11.5% of injected ^238Pu"
  },
  {
    "compound": "Cn1ccc(C(=O)NCCN(CCNC(=O)c2ccn(C)c(=O)c2O)CCN(CCNC(=O)c2ccn(C)c(=O)c2O)CCNC(=O)c2ccn(C)c(=O)c2O)c(O)c1=O [H(2,2)-Me-3,2-HOPO]",
    "recordedResult": "45.3% of injected ^238Pu"
  },
  {
    "compound": "Cn1ccc(C(=O)NCCCCCCNC(=O)c2ccn(C)c(=O)c2O)c(O)c1=O [6-LI-Me-3,2-HOPO]",
    "recordedResult": "62.9% of injected ^238Pu"
  },
  {
    "compound": "Cn1ccc(C(=O)NCCCNC(=O)c2ccn(C)c(=O)c2O)c(O)c1=O [3-LI-Me-3,2-HOPO]",
    "recordedResult": "41.6% of injected ^238Pu"
  }
]

Prompt: So what does the record say about percent of injected ^238Pu at 24 h, excreta: feces and GI contents for Cn1ccc(C(=O)NCCN(CCCN(CCNC(=O)c2ccn(C)c(=O)c2O)CCNC(=O)c2ccn(C)c(=O)c2O)CCNC(=O)c2ccn(C)c(=O)c2O)c(O)c1=O [H(3,2)-Me-3,2-HOPO] ?
Completion: 52.1% of injected ^238Pu

Prompt: So what does the record say about percent of injected ^238Pu at 24 h, excreta: feces and GI contents for Cn1ccc(C(=O)NCCCCNC(=O)c2ccn(C)c(=O)c2O)c(O)c1=O [4-LI-Me-3,2-HOPO] ?
Completion: 63% of injected ^238Pu
